# System: murine colon carcinoma cell line CT-26
# TEST SUMMARY: In vitro cytotoxicity assay (resazurin reduction test)
# Type: cell-based
# MEASUREMENT CONTEXT: Mus musculus; CT26; 48-h continuous drug exposure
Catalogue of molecules with associated pIC50
pIC50 here: minus log base 10 of the concentration, concentration in moles per litre.

| MOLECULE | pIC50 |
| --- | --- |
| O=C(O)CCCc1ccc(N(CCCl)CCCl)cc1 [chlorambucil, reference compound] | 5.20 |
| CC(=O)OC[C@H]1O[C@@H](Oc2ccc(NC(=O)CNC(=O)CCCc3ccc(N(CCCl)CCCl)cc3)cc2)[C@H](F)[C@@H](OC(C)=O)[C@@H]1OC(C)=O [Compound 40a] | 5.37 |

Prompt: Returns the measured pIC50 for the input molecule. Input: CC(=O)OC[C@H]1O[C@@H](NC(=O)c2ccc(NC(=O)CCCc3ccc(N(CCCl)CCCl)cc3)cc2)[C@H](F)[C@@H](OC(C)=O)[C@@H]1OC(C)=O [Compound 20a]
Response: 5.77

Prompt: Tell me the measured pIC50 of CC(=O)OC[C@H]1O[C@@H](NC(=O)CNC(=O)CCCc2ccc(N(CCCl)CCCl)cc2)[C@H](F)[C@@H](OC(C)=O)[C@@H]1OC(C)=O [Compound 21a] , please.
Response: 5.15

====

# TEST SUMMARY: Determination of the Maximum Tolerated Dose (MTD), acute toxicity after a single IP injection
# Type: in vivo, male OF1 mice
# MEASUREMENT CONTEXT: male, OF1, mouse, in vivo; single IP administration; zero deaths, maximal weight loss 15 % at Day 1, CSS as low as possible
# Description: Drugs were dissolved in a mixture of dimethylacetamide (Sigma) and oleic macrogolglycerides (Labrafil® M1944Cs, Gattefossé) (10:90%, vol/vol). Initially, the Maximum Tolerated Dose (MTD) after intraperitoneal (IP) administration was determinated. […] After IP injection, mice were weighed and observed every two days over a 2 week-period to evaluate general clinical state. […] CSS was then calculated per group by summing individual scores. Loss of weight and mortality were also recorded.
VALUE KIND: MTD at 2 weeks

Worked examples, 2 compounds total:
| COMPOUND | MTD at 2 weeks |
| --- | --- |
| O=C(O)CCCc1ccc(N(CCCl)CCCl)cc1 [chlorambucil, reference compound] | 50 µmol/kg |
| CC(=O)OC[C@H]1O[C@@H](NC(=O)CNC(=O)CCCc2ccc(N(CCCl)CCCl)cc2)[C@H](F)[C@@H](OC(C)=O)[C@@H]1OC(C)=O [Compound 21a] | 140 µmol/kg |

Prompt: May I ask what MTD at 2 weeks has been recorded for CC(=O)OC[C@H]1O[C@@H](Oc2ccc(NC(=O)CNC(=O)CCCc3ccc(N(CCCl)CCCl)cc3)cc2)[C@H](F)[C@@H](OC(C)=O)[C@@H]1OC(C)=O [Compound 40a] ?
Response: 140 µmol/kg

====

# Tested on: colon adenocarcinoma DLD-1
# TEST SUMMARY: In vitro cytotoxicity assay (resazurin reduction test)
# Format: cell-based
# MEASUREMENT CONTEXT: Homo sapiens, DLD1, 48-h continuous drug exposure
VALUE KIND: IC50 (µM)
API: value field is a number in µM; no unit string.

In the examples that follow, each entry is paired with its recorded IC50.
| COMPOUND | ASSAY TARGET | IC50 (µM) |
| --- | --- | --- |
| CC(=O)OC[C@H]1O[C@@H](NC(=O)NCCCc2ccc(N(CCCl)CCCl)cc2)[C@H](F)[C@@H](OC(C)=O)[C@@H]1OC(C)=O [Compound 17a] | colon adenocarcinoma DLD-1 | 7 |
| CC(=O)OC[C@H]1O[C@@H](NC(=O)CCNC(=O)CCCc2ccc(N(CCCl)CCCl)cc2)[C@H](F)[C@@H](OC(C)=O)[C@@H]1OC(C)=O [Compound 31a] | colon adenocarcinoma DLD-1 | 11 |
| CC(=O)OC[C@H]1O[C@@H](NC(=O)CCCNC(=O)CCCc2ccc(N(CCCl)CCCl)cc2)[C@H](F)[C@@H](OC(C)=O)[C@@H]1OC(C)=O [Compound 22a] | colon adenocarcinoma DLD-1 | 9 |
| CC(=O)OC[C@H]1O[C@@H](Oc2ccc(NC(=O)CNC(=O)CCCc3ccc(N(CCCl)CCCl)cc3)cc2)[C@H](F)[C@@H](OC(C)=O)[C@@H]1OC(C)=O [Compound 40a] | colon adenocarcinoma DLD-1 | 6 |
| CC(=O)OC[C@H]1O[C@@H](NC(=O)CNC(=O)CCCc2ccc(N(CCCl)CCCl)cc2)[C@H](F)[C@@H](OC(C)=O)[C@@H]1OC(C)=O [Compound 21a] | colon adenocarcinoma DLD-1 | 4 |

Prompt: Look up IC50 for this compound: CC(=O)OC[C@H]1O[C@@H](Oc2ccc(NC(=O)CCCc3ccc(N(CCCl)CCCl)cc3)cc2)[C@H](F)[C@@H](OC(C)=O)[C@@H]1OC(C)=O [Compound 37a]
Response: 10

Prompt: Find the recorded IC50 belonging to O=C(O)CCCc1ccc(N(CCCl)CCCl)cc1 [chlorambucil, reference compound] and report it.
Response: 47

Prompt: What value of IC50 has been reported for the following compound? CC(=O)OC[C@H]1O[C@@H](NC(=O)c2ccc(NC(=O)CCCc3ccc(N(CCCl)CCCl)cc3)cc2)[C@H](F)[C@@H](OC(C)=O)[C@@H]1OC(C)=O [Compound 20a]
Response: 3
